Known shrunken log2 fold change of a selection of sequences
System: Escherichia coli TOP10;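 note: peptides expressed intracellularly from a pBAD plasmid library in pooled LB shake-flask culture, induced with 0.3% L-arabinose, DNA abundance read by NGS, three biological replicates, DESeq2 with apeglm shrinkage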
Experiment: shrunken log2 fold change of peptide-encoding DNA abundance (4.5 h post-induction vs induction); higher = less antimicrobial activity (less host growth inhibition)
Details: time post-induction: 4.5 h; library: site-saturation at positions 5, 18, 19, 20
Lab note: jot the number down without any unit.

Use the examples below as a reference point.
| SEQ | shrunken log2 fold change |
| --- | --- |
| RRIRFRPPRLPRPRPRPCWDPRP | -0.0535 |
| RRIRGRPPRLPRPRPRPKDDPRP | 0.293 |
| RRIRYRPPRLPRPRPRPITYPRP | -0.0505 |
| RRIRNRPPRLPRPRPRPHRTPRP | -0.827 |
| RRIRSRPPRLPRPRPRPWNNPRP | -0.627 |

shrunken log2 fold change in this record for RRIRNRPPRLPRPRPRPDFWPRP : 0.3

shrunken log2 fold change in this record for RRIRFRPPRLPRPRPRPDKTPRP : -0.0318

shrunken log2 fold change in this record for RRIRGRPPRLPRPRPRPEQQPRP : -0.0199

shrunken log2 fold change in this record for RRIRERPPRLPRPRPRPHVMPRP : -0.957

shrunken log2 fold change in this record for RRIRPRPPRLPRPRPRPRPWPRP : 0.212

shrunken log2 fold change in this record for RRIRSRPPRLPRPRPRPVYQPRP : -1.16

shrunken log2 fold change in this record for RRIRRRPPRLPRPRPRPCGVPRP : 0.0719

shrunken log2 fold change in this record for RRIRYRPPRLPRPRPRPEWTPRP : -0.247

shrunken log2 fold change in this record for RRIRHRPPRLPRPRPRPAHGPRP : 0.0855

shrunken log2 fold change in this record for RRIRNRPPRLPRPRPRPNPYPRP : -0.151
